Kindly state POST Application ALOMY herbicidal damage (five point scale) for each of the entries shown.
Tested on: Alopecurus myosuroides (ALOMY)
procedureSummary: Post-emergence herbicidal glasshouse test on Alopecurus myosuroides
Type: in vivo
particulars: post-emergence; 1000 g/h; evaluated after 13 days

Test item Cn1ncc(-n2ccc(C(F)(F)F)c(-c3ccc(C(F)(F)F)cc3)c2=O)c(O)c1=O [Compound 7.035] ; Alopecurus myosuroides (ALOMY); reported POST Application ALOMY herbicidal damage (five point scale) was 5 (5=80-100% damage)

Test item COc1ccc(Cn2cccc(-c3cnn(C)c(=O)c3O)c2=O)cc1 [Compound 9.004] ; Alopecurus myosuroides (ALOMY); reported POST Application ALOMY herbicidal damage (five point scale) was 1 (1=0-19% damage)

Test item Cn1ncc(-c2ccc(C(F)(F)F)cc2[S+](C)[O-])c(O)c1=O (stereo not drawn) [Compound 1.029] ; Alopecurus myosuroides (ALOMY); reported POST Application ALOMY herbicidal damage (five point scale) was 5 (5=80-100% damage)

Test item Cn1ncc(-n2ccc3ccccc3c2=O)c(O)c1=O [Compound 1.069] ; Alopecurus myosuroides (ALOMY); reported POST Application ALOMY herbicidal damage (five point scale) was 2 (2=20-39% damage)

Test item Cc1cc(Cl)ccc1-c1cnn(C)c(=O)c1O [Compound 1.082] ; Alopecurus myosuroides (ALOMY); reported POST Application ALOMY herbicidal damage (five point scale) was 1 (1=0-19% damage)

Test item COc1ccc(-c2cnn(C)c(=O)c2O)c(C(F)(F)F)c1 [Compound 1.115] ; Alopecurus myosuroides (ALOMY); reported POST Application ALOMY herbicidal damage (five point scale) was 1 (1=0-19% damage)

Test item CCCCS(=O)(=O)c1ccccc1-c1cnn(C)c(=O)c1O [Compound 1.051] ; Alopecurus myosuroides (ALOMY); reported POST Application ALOMY herbicidal damage (five point scale) was 1 (1=0-19% damage)

Test item Cn1ncc(-c2ccc(C(F)(F)F)cc2[N+](=O)[O-])c(O)c1=O [Compound 1.110] ; Alopecurus myosuroides (ALOMY); reported POST Application ALOMY herbicidal damage (five point scale) was 1 (1=0-19% damage)

Test item CCCn1ncc(-c2ccc(C(F)(F)F)cc2Cl)c(O)c1=O [Compound 1.126] ; Alopecurus myosuroides (ALOMY); reported POST Application ALOMY herbicidal damage (five point scale) was 1 (1=0-19% damage)

Test item Cn1ncc(-c2ccc(C(F)(F)F)cc2S(C)(=O)=O)c(OC(=O)c2ccccc2)c1=O [Compound 3.002] ; Alopecurus myosuroides (ALOMY); reported POST Application ALOMY herbicidal damage (five point scale) was 5 (5=80-100% damage)

Test item COc1c(Cl)ccc(-c2cnn(C)c(=O)c2O)c1F [Compound 1.063] ; Alopecurus myosuroides (ALOMY); reported POST Application ALOMY herbicidal damage (five point scale) was 1 (1=0-19% damage)

Test item Cc1ccc(-c2c(C(F)(F)F)ccn(-c3cnn(C)c(=O)c3O)c2=O)cc1[N+](=O)[O-] [Compound 7.027] ; Alopecurus myosuroides (ALOMY); reported POST Application ALOMY herbicidal damage (five point scale) was 3 (3=40-59% damage)

Test item Cn1ncc(-c2ccc(Cl)c(F)c2Cl)c(O)c1=O [Compound 1.092] ; Alopecurus myosuroides (ALOMY); reported POST Application ALOMY herbicidal damage (five point scale) was 1 (1=0-19% damage)

Test item Cn1ncc(-n2ccc(C(F)(F)F)c(N3CCOCC3)c2=O)c(O)c1=O [Compound 1.026] ; Alopecurus myosuroides (ALOMY); reported POST Application ALOMY herbicidal damage (five point scale) was 5 (5=80-100% damage)

Test item COCn1ncc(-c2ccc(C(F)(F)F)cc2[S+](C)[O-])c(O)c1=O (stereo not drawn) [Compound 1.146] ; Alopecurus myosuroides (ALOMY); reported POST Application ALOMY herbicidal damage (five point scale) was 5 (5=80-100% damage)

Test item Cc1cc(C)c2cc(-c3cnn(C)c(=O)c3O)c(C(F)(F)F)nc2n1 [Compound 5.002] ; Alopecurus myosuroides (ALOMY); reported POST Application ALOMY herbicidal damage (five point scale) was 1 (1=0-19% damage)

Test item Cn1ncc(-c2cc(Cl)ccc2Cl)c(O)c1=O [Compound 1.099] ; Alopecurus myosuroides (ALOMY); reported POST Application ALOMY herbicidal damage (five point scale) was 1 (1=0-19% damage)

Test item CCSC(=O)Oc1c(-c2ccc(C(F)(F)F)cc2S(C)(=O)=O)cnn(C)c1=O [Compound 3.004] ; Alopecurus myosuroides (ALOMY); reported POST Application ALOMY herbicidal damage (five point scale) was 5 (5=80-100% damage)

Test item COc1cccn(-c2cnn(C)c(=O)c2O)c1=O [Compound 1.070] ; Alopecurus myosuroides (ALOMY); reported POST Application ALOMY herbicidal damage (five point scale) was 1 (1=0-19% damage)

Test item Cn1ncc(-c2cccn(-c3cccc(Cl)c3)c2=O)c(O)c1=O [Compound 1.143] ; Alopecurus myosuroides (ALOMY); reported POST Application ALOMY herbicidal damage (five point scale) was 2 (2=20-39% damage)

Test item Cn1ncc(-n2ccc(C(F)(F)F)c(-c3cccc(F)c3)c2=O)c(O)c1=O [Compound 7.012] ; Alopecurus myosuroides (ALOMY); reported POST Application ALOMY herbicidal damage (five point scale) was 5 (5=80-100% damage)

Test item Cn1ncc(-c2ccccc2[S+]([O-])C(F)(F)F)c(O)c1=O (stereo not drawn) [Compound 1.055] ; Alopecurus myosuroides (ALOMY); reported POST Application ALOMY herbicidal damage (five point scale) was 1 (1=0-19% damage)

Test item Cc1ccc(-n2cccc(-c3cnn(C)c(=O)c3O)c2=O)cc1 [Compound 9.017] ; Alopecurus myosuroides (ALOMY); reported POST Application ALOMY herbicidal damage (five point scale) was 2 (2=20-39% damage)

Test item CCn1ncc(-c2c(Cl)cccc2Cl)c(O)c1=O [Compound 1.011] ; Alopecurus myosuroides (ALOMY); reported POST Application ALOMY herbicidal damage (five point scale) was 2 (2=20-39% damage)
